System: CP335
Assay: qHTS profiling for inhibitors of Plasmodium falciparum proliferation (AID 504749); further: nearly all actives have a fitted effect of over 60% in size
Conditions: P. falciparum in erythrocytes, SYBR Green DNA, 72 h; series mostly up to 28.7 µM
Experimental: NIH National Institute of Allergy and Infectious Diseases [NIAID] NIH Chemical Genomics Center [NCGC] […] Because mature erythrocytes lack DNA, only Plasmodium-derived DNA is detected. NCGC Assay Protocol Summary: The SYBR Green viability assay was adapted from a method described previously (Plouffe et al., 2008). […] The following morning, fluorescence intensity at 485(14) nm excitation and 535(25) nm emission wavelengths was measured on an EnVision (Perkin Elmer) plate reader. […]
Records with an inconclusive call do not appear. Calls of active or inactive are those of the source. The call rests on the fitted dose curve; in most records, active means well fitted inhibition curve with a large enough effect; inconclusive means small, poorly fitted or top-dose-only effect; inactive means flat fitted curve, though single readings scatter.
Reply using exactly one outcome from 1 = active, 0 = inactive

CCCCCCCCCCCCCCCC(=O)OCC(COC(=O)CCCCCCCCCCCCCCC)OC(=O)CCCCCCCCCCCCCCC
0
CO[C@H]1C[C@@H]2CC[C@@H](C)[C@@](O)(O2)C(=O)C(=O)N2CCCC[C@H]2C(=O)O[C@H]([C@H](C)C[C@@H]2CC[C@@H](OCCO)[C@H](OC)C2)CC(=O)[C@H](C)/C=C(\C)[C@@H](O)[C@@H](OC)C(=O)[C@H](C)C[C@H](C)/C=C/C=C/C=C/1C
1

Short answer needed: outcome of this test for CCCCCCCC(=O)O ? 0
